Test system: ECHCG, Barnyardgrass, Echinochloa crusgalli, (L.)Beau
Experiment: Preemergence herbicidal evaluation (Example 148)
Assay type: in vivo
Settings: rate 0.25 kg/ha, rating scale 0-9, two to four weeks after treatment
REPORTED_ENDPOINT: Preemergence herbicidal rating ECHCG
Number only, please.

SMILES_RECORD: C#CCN(C)S(=O)(=O)NC(=O)c1cc(-n2c(=O)cc(C(F)(F)F)n(C)c2=O)c(F)cc1Cl
Preemergence herbicidal rating ECHCG: 2.0

SMILES_RECORD: C=CCN(C)S(=O)(=O)NC(=O)c1cc(-n2c(=O)cc(C(F)(F)F)n(C)c2=O)c(F)cc1Cl
Preemergence herbicidal rating ECHCG: 3.0

SMILES_RECORD: CCNS(=O)(=O)NC(=O)c1cc(-n2c(=O)cc(C(F)(F)F)n(C)c2=O)c(F)cc1Cl
Preemergence herbicidal rating ECHCG: 3.0

Shifting focus to the compound that follows.
## Input Fill in Preemergence herbicidal rating ECHCG for record "Cn1c(C(F)(F)F)cc(=O)n(-c2cc(C(=O)NS(N)(=O)=O)c(Cl)cc2F)c1=O"
## Output 6.0
